# System: EPHB1 (UniProt P54762)
# Sequence (P54762 whole entry, looked up): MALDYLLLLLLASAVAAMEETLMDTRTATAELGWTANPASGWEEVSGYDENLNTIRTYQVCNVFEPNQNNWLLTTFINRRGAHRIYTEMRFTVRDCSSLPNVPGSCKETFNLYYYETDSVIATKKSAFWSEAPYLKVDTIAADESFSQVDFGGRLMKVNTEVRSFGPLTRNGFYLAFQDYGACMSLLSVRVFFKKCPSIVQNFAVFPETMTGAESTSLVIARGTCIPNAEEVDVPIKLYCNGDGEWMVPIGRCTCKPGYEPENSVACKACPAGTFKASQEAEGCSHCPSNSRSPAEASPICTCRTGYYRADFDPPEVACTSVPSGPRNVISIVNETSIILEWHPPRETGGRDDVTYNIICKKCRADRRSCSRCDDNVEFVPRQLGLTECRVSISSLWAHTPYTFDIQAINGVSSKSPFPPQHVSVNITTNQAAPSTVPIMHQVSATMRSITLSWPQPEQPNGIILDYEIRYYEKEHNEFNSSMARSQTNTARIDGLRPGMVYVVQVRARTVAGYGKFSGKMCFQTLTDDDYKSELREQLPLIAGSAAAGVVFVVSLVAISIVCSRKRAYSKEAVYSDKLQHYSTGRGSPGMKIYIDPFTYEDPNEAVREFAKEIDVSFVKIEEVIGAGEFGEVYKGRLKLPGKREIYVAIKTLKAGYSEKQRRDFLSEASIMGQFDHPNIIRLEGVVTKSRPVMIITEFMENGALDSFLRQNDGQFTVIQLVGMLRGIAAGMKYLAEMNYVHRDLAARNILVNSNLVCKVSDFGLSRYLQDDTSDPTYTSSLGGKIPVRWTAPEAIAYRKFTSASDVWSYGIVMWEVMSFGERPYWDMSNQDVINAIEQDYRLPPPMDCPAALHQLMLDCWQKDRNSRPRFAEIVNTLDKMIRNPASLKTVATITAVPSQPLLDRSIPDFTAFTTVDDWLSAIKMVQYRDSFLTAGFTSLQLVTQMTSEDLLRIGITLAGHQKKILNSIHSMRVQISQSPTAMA
# Method summary: phosphorylation enrichment, bacterial display (enrichment ratio); higher = better substrate or ligand; peptides without Tyr show the background;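 further: 11-residue human phosphosite peptides and single-mutation variants displayed on the E. coli surface, counted by deep sequencing, each peptide's frequency after selection divided by its frequency in the unselected input library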;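 further: frequency after pTyr selection over input frequency; kinase dosed for 20-30% of maximal phosphorylation in three min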
Field: class. Source value: phosphorylation enrichment. Ranges: lower range: < 0.6; middle range: ≥ 0.6 and < 0.8; upper range: ≥ 0.8

Sequence content	Assigned category
STTIHYNFMCN [TP53_Y234_C229S_YF]	middle range
RIDRKYKKVRF [F8_Y442_G439D]	middle range
LSSEMYVKSYT [F5_Y2149]	upper range
PEFINYHQHNS [BTK_Y361_L358F]	lower range
PFSEPYADFGG [APBA1_Y187_YF]	lower range
RISPEYKQNEI [GJB1_Y243_L239I]	upper range
RKRQFYLFKGK [RSPO4_Y112_C107R_YF]	middle range
MTFMFYRENLR [NLRP14_Y443_V441M_YF]	middle range
